Origin of measurements: ChEMBL document CHEMBL1130289

- Tested on: Junin virus
- method-description: Concentration required to inhibit Junin induced cytopathicity in Vero cells by 50%
- Type: functional, organism-based
- cond: Mammarenavirus juninense
Quick list: IC50 per entry.

Example entries begin here.
# compound, result
records = [
    ("CCCCCCCCCCCCSCCCCCCCCCCCCCCCCCCCCCCC(=O)NCCCCCCCCCCC(=O)[O-].[Na+]", "> 50 µg/mL"),
    ("CCCCCCCCCCCCSCCCCCCCCCCC(=O)N(C)CCCCCCCCCCC(=O)[O-].[Na+]", "> 50 µg/mL"),
    ("CCCCCCCCCCCCSCCCCCCCCCCCCC(=O)NCCCCCCCCCCC(=O)[O-].[Na+]", "> 50 µg/mL"),
]

Enquiry: Return reported IC50 for target or system Junin virus, item CCCCCCCCCCCCSCCCCCCCCCCCCCCCCCCCCCCCCCCCCCCCCCCCCCCCCCCCCCCCCCCC(=O)N(CC)CCCCCCCCCCC(=O)NC(CCC(=O)[O-])C(=O)O.[Na+] (centres undefined) .
Return: > 50 µg/mL

Enquiry: Return reported IC50 for target or system Junin virus, item CCCCCCCCCCCCSCCCCCCCCCCCCCCCCCCCCCCCCCCCCCCCCC(=O)N(CC)CCCCCCCCCCC(=O)[O-].[Na+] .
Return: 20 µg/mL

Enquiry: Return reported IC50 for target or system Junin virus, item CCCCCCCCCCCCSCCCCCCCCCCC(=O)N(CC)CCCCCCCCCCC(=O)NCCC(=O)[O-].[Na+] .
Return: > 50 µg/mL

Enquiry: Return reported IC50 for target or system Junin virus, item CCCCCCCCCCCCSCCCCC(=O)NCCCCCCCCCCC(=O)NCCC(=O)[O-].[Na+] .
Return: 50 µg/mL

Enquiry: Return reported IC50 for target or system Junin virus, item CCCCCCCCCCCCSCCCCCCCCCCCCCCCCCCCCCCCCCCCCCCCCCCCCCCCCC(=O)NCCCCCCCCCCC(=O)[O-].[Na+] .
Return: > 50 µg/mL

Enquiry: Return reported IC50 for target or system Junin virus, item CCCCCCCCCCCCSCCCCCCCCCCCCC(=O)NCCCCCCCCCCC(=O)NCCC(=O)[O-].[Na+] .
Return: 43 µg/mL

====

- System: Human immunodeficiency virus 1
- method-description: Inhibitory concentration required to inhibit HIV-induced cytopathicity in CEM-4 cells by 50% based in the MTT assay
- Assay type: functional, organism-based
- cond: Human immunodeficiency virus 1, CEM-4
Please use the following IC50 ranges when assigning a class: group A = under 10 µg/mL, group B = from 10 µg/mL up to 20 µg/mL, group C = 20 µg/mL and over

Below, 5 molecules whose answers are already recorded.
# molecule, class-label
records = [
    ("CCCCCCCCCCCCSCCCCCCCCCCCCCCCCCCCCC(=O)N(CC)CCCCCCCCCCC(=O)NC(CCC(=O)[O-])C(=O)O.[Na+] (stereo not given)", "group C"),
    ("CCCCCCCCCCCCSCCCCCCCCCCCCCCC(=O)NCCCCCCCCCCC(=O)NC(CCC(=O)[O-])C(=O)O.[Na+] (stereo not given)", "group B"),
    ("CCCCCCCCCCCCSCCCCCCCCCCCCCCCCCCCCCCCCCCCCCCC(=O)N(CC)CCCCCCCCCCC(=O)NCC(=O)[O-].[Na+]", "group A"),
    ("CCCCCCCCCCCCSCCCCCCCCCCCCCCCCCCCCCCC(=O)N(CC)CCCCCCCCCCC(=O)[O-].[Na+]", "group A"),
    ("CCCCCCCCCCCCSCCCCCCCCCCCCCCCCCCCCCCCCCCCCCCCCCCCCCCCCCCCCCCCCCCCCCCCCCCCCCCCCCCCCCCCCCCCCCCCCC(=O)N(CC)CCCCCCCCCCC(=O)[O-].[Na+]", "group A"),
]

Enquiry: For CCCCCCCCCCCCSCCCCCCCCCCCCCCCCCCCCCCCCCCCCCCCCCCC(=O)N(CC)CCCCCCCCCCC(=O)NC(CCC(=O)[O-])C(=O)O.[Na+] (stereo not given) , which IC50 bin applies?
Return: group C

Enquiry: For CCCCCCCCCCCCSCCCCCCCCCCC(=O)NCCCCCCCCCCC(=O)NC(CCC(=O)[O-])C(=O)O.[Na+] (stereo not given) , which IC50 bin applies?
Return: group B

Enquiry: For CCCCCCCCCCCCSCCCCCCCCCCCCCCCCCCCCCCCCCCCCCCCCCCCCCCCCCCCCCCCCCCC(=O)N(CC)CCCCCCCCCCC(=O)NC(CCC(=O)[O-])C(=O)O.[Na+] (stereo not given) , which IC50 bin applies?
Return: group A

Enquiry: For CCCCCCCCCCCCSCCCCCCCCCCC(=O)N(CC)CCCCCCCCCCC(=O)NCC(=O)[O-].[Na+] , which IC50 bin applies?
Return: group C

Enquiry: For CCCCCCCCCCCCSCCCCCCCCCCCCCCCCCCCCCCCCCCCCCCC(=O)NCCCCCCCCCCC(=O)NC(CCC(=O)[O-])C(=O)O.[Na+] (stereo not given) , which IC50 bin applies?
Return: group B

Enquiry: For CCCCCCCCCCCCSCCCCCCCCCCCCCCC(=O)NCCCCCCCCCCC(=O)NCC(=O)[O-].[Na+] , which IC50 bin applies?
Return: group B

Enquiry: For CCCCCCCCCCCCSCCCCCCC(=O)N(CC)CCCCCCCCCCC(=O)NC(CCC(=O)[O-])C(=O)O.[Na+] (stereo not given) , which IC50 bin applies?
Return: group C

Enquiry: For CCCCCCCCCCCCSCCCCCCCCCCCCCCCCCCCCCCCCCCCCC(=O)NCCCCCCCCCCC(=O)NCC(=O)[O-].[Na+] , which IC50 bin applies?
Return: group C

Enquiry: For CCCCCCCCCCCCSCCCCCCCCC(=O)N(CC)CCCCCCCCCCC(=O)[O-].[Na+] , which IC50 bin applies?
Return: group C

====

- System: CEM-4
- method-description: Cytotoxic concentration required to reduce the viability of uninfected cells by 50% after 5 days of incubation in the presence on CEM-4 cells.
- Type: functional
- cond: Homo sapiens, CEM-4, 120 h
property-label: CC50

Example entries begin here.
# chemical-string, target-under-test, CC50
measured = [
    ("CCCCCCCCCCCCSCCCCCCCCCCCCCCCCC(=O)NCCCCCCCCCCC(=O)NCCC(=O)[O-].[Na+]", "CEM-4", "> 100 mg/L"),
    ("CCCCCCCCCCCCSCCCCCCCCC(=O)NCCCCCCCCCCC(=O)[O-].[Na+]", "CEM-4", "29 mg/L"),
]

Next:
Enquiry: Quickly give me recorded CC50 for CCCCCCCCCCCCSCCCCCCCCCCCCCCCCCCCCCCCCCCCCC(=O)NCCCCCCCCCCC(=O)NCC(=O)[O-].[Na+]
Return: > 300 mg/L

====

- System: Human immunodeficiency virus 1
- method-description: Concentration required to inhibit HIV-1 induced cytopathicity in MT-4 cells by 50%
- Type: functional, organism-based
- cond: Human immunodeficiency virus 1, MT4
property-label: IC50 (µg/mL)
Give the value, in units of µg/mL, as a plain number.

Example entries begin here.
# compound, property-label, number
data = [
    ("CCCCCCCCCCCCSCCCCCCCCCCC(=O)N(C)CCCCCCCCCCC(=O)[O-].[Na+]", "IC50", 28),
    ("CCCCCCCCCCCCSCCCCCCCCCCCCCCCCCCCCCCCCCCCCCCCCCCCCCCCCCCCCCCCCCCC(=O)N(CC)CCCCCCCCCCC(=O)NC(CCC(=O)[O-])C(=O)O.[Na+] (centres undefined)", "IC50", 0.1),
    ("CCCCCCCCCCCCSCCCCCCCCCCC(=O)N(CC)CCCCCCCCCCC(=O)NCCC(=O)[O-].[Na+]", "IC50", 13),
]

Enquiry: Quickly give me recorded IC50 for CCCCCCCCCCCCSCCCCCCCCCCCCC(=O)NCCCCCCCCCCC(=O)[O-].[Na+]
Return: 20

Enquiry: Quickly give me recorded IC50 for CCCCCCCCCCCCSCCCCCCCCCCCCCCCCCCCCCCC(=O)NCCCCCCCCCCC(=O)[O-].[Na+]
Return: 55

Enquiry: Quickly give me recorded IC50 for CCCCCCCCCCCCSCCCCCCCCCCCCC(=O)NCCCCCCCCCCC(=O)NCCC(=O)[O-].[Na+]
Return: 3

Enquiry: Quickly give me recorded IC50 for CCCCCCCCCCCCSCCCCCCCCCCCCCCCCCCCCCCCCCCCCCCCCCCCCCCCCC(=O)NCCCCCCCCCCC(=O)[O-].[Na+]
Return: 5

Enquiry: Quickly give me recorded IC50 for CCCCCCCCCCCCSCCCCC(=O)NCCCCCCCCCCC(=O)NCCC(=O)[O-].[Na+]
Return: 6
